Where do these numbers come from? They come from the supplement of paper PMC9112550.

Please go through the items and note down their shrunken log2 fold change.
System: Escherichia coli TOP10;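 further: peptides expressed intracellularly from a pBAD plasmid library in pooled LB shake-flask culture, induced with 0.3% L-arabinose, DNA abundance read by NGS, three biological replicates, DESeq2 with apeglm shrinkage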
method: shrunken log2 fold change of peptide-encoding DNA abundance (4.5 h post-induction vs induction); higher = less antimicrobial activity (less host growth inhibition)
assay-context: time post-induction: 4.5 h; library: site-saturation at positions 5, 18, 19, 20
Give bare numbers.

INSERT INTO measurements (residue_sequence, reported_measurement) VALUES
  ('RRIRWRPPRLPRPRPRPKKDPRP', 0.223),
  ('RRIRTRPPRLPRPRPRPMAPPRP', 0.294),
  ('RRIRDRPPRLPRPRPRPTFHPRP', -0.148),
  ('RRIRYRPPRLPRPRPRPYLIPRP', -0.554),
  ('RRIRFRPPRLPRPRPRPHKRPRP', 0.0127);

Record shrunken log2 fold change per entry; entries follow.
1. RRIRARPPRLPRPRPRPLEKPRP
2. RRIRHRPPRLPRPRPRPHYKPRP
3. RRIRFRPPRLPRPRPRPYKMPRP

-- reply
[0.439, -0.973, -0.62]

Go through the list and state shrunken log2 fold change for each entry.
1. RRIRARPPRLPRPRPRPKRFPRP
2. RRIRGRPPRLPRPRPRPQDWPRP

-- reply
0.249
0.639
